B1: glmS ribozyme (parent)
chain: AUAAAAGCGCCAGAACUACAGAAAUGUAGUUGACGAGGAGGAGGUUUAUCGAAUUUUCGGCGGAUGCCUCCAAA

- Variants of: B1
- Test Name: kcat; higher = faster cleavage; RNA array
- Measurement Setup: with glucosamine-6-phosphate
Fewer inactive variants are shown than the library holds.
Catalogue of variants with associated kcat

{"columns": ["Mutation Annotation", "Qualifier Sign", "kcat / s⁻¹"],
 "data": [
  ["G32C A48U", "<", "1e-05"],
  ["A15U C16G G59C G60A C67U", "<", "1e-05"],
  ["A14G U31A C67G", "=", 0.00052],
  ["C11U A52G", "=", 0.000164],
  ["G37A U54G", "=", 0.00267],
  ["A15G U55C", "=", 0.0256],
  ["G37A U49G", "=", "7.59e-05"],
  ["A14G G40A G41U G66A", "=", 0.000815],
  ["G13A U55G C71G", "=", "4.93e-05"],
  ["C11A U56C", "=", "2.55e-05"],
  ["U47G G66U", "=", 0.000146],
  ["G13A C67A", "=", 0.000273],
  ["A6U C61G", "<", "1e-05"],
  ["G63A C71A", "<", "1e-05"],
  ["G35A G38C", "<", "1e-05"],
  ["A12C G37C", "=", "8.54e-05"],
  ["A33U C70G", "=", "1.5e-05"],
  ["C16A G66U", "=", 0.000122],
  ["C16U C61U", "=", "1.75e-05"],
  ["G38C C70A", "=", "1.54e-05"],
  ["G7A A14C", "=", "1.34e-05"],
  ["G29C U47G", "=", 0.000341],
  ["A12C C34A", "<", "1e-05"],
  ["U55C G66C", "=", 0.00112],
  ["U46C G66A", "=", 0.000975],
  ["A53U C58A", "=", 0.000327],
  ["C10U G66A", "=", "1.5e-05"],
  ["G40U U46G", "=", 0.00101],
  ["C58A C71U", "=", 0.00051],
  ["A52C C70U", "=", "5.27e-05"],
  ["C10U A53U", "=", "1.55e-05"],
  ["G13U C50G", "=", "4.84e-05"],
  ["C16G A53U", "=", 0.00332],
  ["A14U U30G", "=", 0.00494],
  ["G40U U55A", "=", 0.00366],
  ["A6U C71G", "=", "3.27e-05"],
  ["A64U C67G", "<", "1e-05"],
  ["G43U U56C", "<", "1e-05"],
  ["A15G C61A", "<", "1e-05"],
  ["G62C C70G C71A", "=", "3.99e-05"],
  ["A14G G66C", "=", 0.00168],
  ["U47A C61A C70G C71U", "=", "1.64e-05"],
  ["G29U U49A", "<", "1e-05"],
  ["A15U A39U", "=", 0.00466],
  ["U54C C70U", "=", 0.00794],
  ["A53U U65C", "=", 0.000266],
  ["G43U A53U", "=", "2.65e-05"],
  ["U46C U47G", "=", 0.0024],
  ["C50U C71U", "=", "5.37e-05"],
  ["A15C G29C G37A C61U", "<", "1e-05"],
  ["U54C A64G", "=", 0.016],
  ["A12U G59A", "=", 0.000207],
  ["A39U U54C", "=", 0.0342],
  ["A53G U55C", "=", 0.0183],
  ["A15C G44A", "=", "2.81e-05"],
  ["U45G U54A", "=", 0.00862],
  ["C11U A39C", "=", 0.000759],
  ["C10U C11U", "=", "3.12e-05"],
  ["A15U U45A", "=", 0.0179],
  ["A6U A52G", "<", "1e-05"],
  ["G9A C34G C67A", "<", "1e-05"],
  ["G44C C71U", "=", "1.52e-05"],
  ["A14C C58A", "=", 0.000221],
  ["G38U G66C C71U", "=", "1.04e-05"],
  ["G29A U65A", "=", 0.000167],
  ["A48C C70U", "=", 0.000564],
  ["A39G G43A", "=", 0.0004],
  ["U47G C71A", "=", 0.00107],
  ["U45A C50A", "=", "1.56e-05"],
  ["G40C A64G", "=", 0.00107],
  ["C68U U69G C70U", "=", "1.34e-05"],
  ["C11A C34G G60U A64G", "<", "1e-05"],
  ["U47A C68G", "=", "4.89e-05"],
  ["U49G G66A", "=", 0.000689],
  ["G7A G32A C50G", "=", "4.21e-05"],
  ["G29U C67A", "=", 0.000685],
  ["A15G U69G", "=", "7.83e-05"],
  ["A15U A64U", "=", "1.4e-05"],
  ["U47C A53U", "=", 0.00157],
  ["G38A U55C", "<", "1e-05"],
  ["U47A U65C", "=", 0.000833],
  ["G41U C70A", "=", 0.0306]
]}
